- measurementTarget: Voltage-gated L-type calcium channel (Rattus norvegicus, UniProt P22002+Q02485+P27732)
- assayOverview: Inhibitory activity against L-type calcium channel in SD rat thoracic aorta by Magnus method
- Format: functional, tissue-based
Would you kindly list log10 IC50 for each of these compounds?
In plain terms, each number is the log10 of measured IC50 in nM.

GET log10 IC50 | system: Voltage-gated L-type calcium channel (Rattus norvegicus, UniProt P22002+Q02485+P27732) | item: CC1=NC(C)=C(C(=O)O)C(c2cccc(F)c2)/C1=C(\O)OC/C=C/c1ccccc1 (configuration not stated)
1.30

GET log10 IC50 | system: Voltage-gated L-type calcium channel (Rattus norvegicus, UniProt P22002+Q02485+P27732) | item: CC1=C(C(=O)O)C(c2cccc([N+](=O)[O-])c2)C(C(=O)OC/C=C/c2ccccc2)=C(C)N1 (configuration not stated)
1.66

GET log10 IC50 | system: Voltage-gated L-type calcium channel (Rattus norvegicus, UniProt P22002+Q02485+P27732) | item: CC1=NC(C)=C(C(=O)O)C(c2cccc(Cl)c2)/C1=C(\O)OC/C=C/c1ccc(C)cc1 (configuration not stated)
0.83

GET log10 IC50 | system: Voltage-gated L-type calcium channel (Rattus norvegicus, UniProt P22002+Q02485+P27732) | item: CC1=NC(C)=C(C(=O)O)C(c2cccc(Cl)c2)/C1=C(\O)OC/C=C/c1ccccc1 (configuration not stated)
1.30

GET log10 IC50 | system: Voltage-gated L-type calcium channel (Rattus norvegicus, UniProt P22002+Q02485+P27732) | item: CC1=NC(C)=C(C(=O)O)C(c2ccccc2)/C1=C(\O)OC/C=C/c1ccccc1 (configuration not stated)
0.95

GET log10 IC50 | system: Voltage-gated L-type calcium channel (Rattus norvegicus, UniProt P22002+Q02485+P27732) | item: CC1=C(C(=O)O)C(c2cccc(Cl)c2)C(C(=O)OCCC(c2ccccc2)c2ccccc2)=C(C(F)(F)F)N1 (configuration not stated)
3.26

GET log10 IC50 | system: Voltage-gated L-type calcium channel (Rattus norvegicus, UniProt P22002+Q02485+P27732) | item: CC1=NC(C)=C(C(=O)O)C(c2cccc(C)c2)/C1=C(\O)OC/C=C/c1ccccc1 (configuration not stated)
1.88

GET log10 IC50 | system: Voltage-gated L-type calcium channel (Rattus norvegicus, UniProt P22002+Q02485+P27732) | item: CC1=NC(C)=C(C(=O)O)C(c2ccsc2)/C1=C(\O)OC/C=C/c1ccccc1 (configuration not stated)
1.64

GET log10 IC50 | system: Voltage-gated L-type calcium channel (Rattus norvegicus, UniProt P22002+Q02485+P27732) | item: CC1=NC(C)=C(C(=O)O)C(c2cccc(Cl)c2)/C1=C(\O)OCC=C(c1ccccc1)c1ccccc1 (configuration not stated)
2.30

GET log10 IC50 | system: Voltage-gated L-type calcium channel (Rattus norvegicus, UniProt P22002+Q02485+P27732) | item: CC1=NC(C)=C(C(=O)O)C(c2cccc(Cl)c2)/C1=C(\O)OC/C=C/C1CCCCC1 (configuration not stated)
0.57

GET log10 IC50 | system: Voltage-gated L-type calcium channel (Rattus norvegicus, UniProt P22002+Q02485+P27732) | item: CC1=NC(C)=C(C(=O)O)C(c2cccnc2)/C1=C(\O)OC/C=C/c1ccccc1 (configuration not stated)
2.28

GET log10 IC50 | system: Voltage-gated L-type calcium channel (Rattus norvegicus, UniProt P22002+Q02485+P27732) | item: CC1=NC(C)=C(C(=O)O)C(c2cccc(Br)c2)/C1=C(\O)OC/C=C/c1ccccc1 (configuration not stated)
1.00

GET log10 IC50 | system: Voltage-gated L-type calcium channel (Rattus norvegicus, UniProt P22002+Q02485+P27732) | item: COCCOC(=O)C1=C(C)NC(C)=C(C(=O)OC/C=C/c2ccccc2)C1c1cccc([N+](=O)[O-])c1 (configuration not stated) [CILNIDIPINE]
0.04

GET log10 IC50 | system: Voltage-gated L-type calcium channel (Rattus norvegicus, UniProt P22002+Q02485+P27732) | item: CC1=NC(C)=C(C(=O)O)C(c2ccccc2[N+](=O)[O-])/C1=C(\O)OC/C=C/c1ccccc1 (configuration not stated)
1.49

GET log10 IC50 | system: Voltage-gated L-type calcium channel (Rattus norvegicus, UniProt P22002+Q02485+P27732) | item: CC1=NC(C)=C(C(=O)O)C(c2ccoc2)/C1=C(\O)OC/C=C/c1ccccc1 (configuration not stated)
2.11

GET log10 IC50 | system: Voltage-gated L-type calcium channel (Rattus norvegicus, UniProt P22002+Q02485+P27732) | item: CC1=NC(C)=C(C(=O)O)C(c2ccc([N+](=O)[O-])cc2)/C1=C(\O)OC/C=C/c1ccccc1 (configuration not stated)
3.20

GET log10 IC50 | system: Voltage-gated L-type calcium channel (Rattus norvegicus, UniProt P22002+Q02485+P27732) | item: CC1=NC(C)=C(C(=O)O)C(c2cccc(Cl)c2)/C1=C(\O)OC/C=C/c1ccc(Cl)cc1 (configuration not stated)
0.76

GET log10 IC50 | system: Voltage-gated L-type calcium channel (Rattus norvegicus, UniProt P22002+Q02485+P27732) | item: CC1=NC(C)=C(C(=O)O)C(c2cccc(Cl)c2)/C1=C(\O)OC/C=C/c1ccncc1 (configuration not stated)
2.51

GET log10 IC50 | system: Voltage-gated L-type calcium channel (Rattus norvegicus, UniProt P22002+Q02485+P27732) | item: CC1=NC(C)=C(C(=O)O)C(c2cccc(Cl)c2)/C1=C(\O)OC/C(C)=C/c1ccccc1 (configuration not stated)
0.45

GET log10 IC50 | system: Voltage-gated L-type calcium channel (Rattus norvegicus, UniProt P22002+Q02485+P27732) | item: CC1=NC(C)=C(C(=O)O)C(c2cccc(Cl)c2)/C1=C(\O)OCCC(c1ccccc1)c1ccccc1 (configuration not stated)
2.56

GET log10 IC50 | system: Voltage-gated L-type calcium channel (Rattus norvegicus, UniProt P22002+Q02485+P27732) | item: CC1=C(C(=O)O)C(c2cccc(Cl)c2)C(C(=O)NC/C=C/c2ccccc2)=C(C)N1 (configuration not stated)
2.93

GET log10 IC50 | system: Voltage-gated L-type calcium channel (Rattus norvegicus, UniProt P22002+Q02485+P27732) | item: CC1=NC(C)=C(C(=O)O)C(c2cccc(I)c2)/C1=C(\O)OC/C=C/c1ccccc1 (configuration not stated)
1.11

GET log10 IC50 | system: Voltage-gated L-type calcium channel (Rattus norvegicus, UniProt P22002+Q02485+P27732) | item: CC1=NC(C)=C(C(=O)O)C(c2cccc(Cl)c2)/C1=C(\O)OCc1ccc2ccccc2c1 (configuration not stated)
1.15

GET log10 IC50 | system: Voltage-gated L-type calcium channel (Rattus norvegicus, UniProt P22002+Q02485+P27732) | item: CC1=NC(C)=C(C(=O)O)C(c2cccc(Cl)c2)/C1=C(\O)OCCC(c1ccccn1)c1ccccn1 (configuration not stated)
3.20

GET log10 IC50 | system: Voltage-gated L-type calcium channel (Rattus norvegicus, UniProt P22002+Q02485+P27732) | item: CC1=NC(C)=C(C(=O)O)C(c2cccc(Cl)c2)/C1=C(\O)OCC(=O)Nc1ccccc1 (configuration not stated)
1.70

GET log10 IC50 | system: Voltage-gated L-type calcium channel (Rattus norvegicus, UniProt P22002+Q02485+P27732) | item: COC(=O)c1cccc(C2C(C(=O)O)=C(C)N=C(C)/C2=C(/O)OC/C=C/c2ccccc2)c1 (configuration not stated)
3.64

====

Would you kindly list IC50 for each of these molecules?
- measurementTarget: Voltage-dependent N-type calcium channel subunit alpha-1B (Homo sapiens, UniProt Q00975)
- Sequence (Q00975 whole entry): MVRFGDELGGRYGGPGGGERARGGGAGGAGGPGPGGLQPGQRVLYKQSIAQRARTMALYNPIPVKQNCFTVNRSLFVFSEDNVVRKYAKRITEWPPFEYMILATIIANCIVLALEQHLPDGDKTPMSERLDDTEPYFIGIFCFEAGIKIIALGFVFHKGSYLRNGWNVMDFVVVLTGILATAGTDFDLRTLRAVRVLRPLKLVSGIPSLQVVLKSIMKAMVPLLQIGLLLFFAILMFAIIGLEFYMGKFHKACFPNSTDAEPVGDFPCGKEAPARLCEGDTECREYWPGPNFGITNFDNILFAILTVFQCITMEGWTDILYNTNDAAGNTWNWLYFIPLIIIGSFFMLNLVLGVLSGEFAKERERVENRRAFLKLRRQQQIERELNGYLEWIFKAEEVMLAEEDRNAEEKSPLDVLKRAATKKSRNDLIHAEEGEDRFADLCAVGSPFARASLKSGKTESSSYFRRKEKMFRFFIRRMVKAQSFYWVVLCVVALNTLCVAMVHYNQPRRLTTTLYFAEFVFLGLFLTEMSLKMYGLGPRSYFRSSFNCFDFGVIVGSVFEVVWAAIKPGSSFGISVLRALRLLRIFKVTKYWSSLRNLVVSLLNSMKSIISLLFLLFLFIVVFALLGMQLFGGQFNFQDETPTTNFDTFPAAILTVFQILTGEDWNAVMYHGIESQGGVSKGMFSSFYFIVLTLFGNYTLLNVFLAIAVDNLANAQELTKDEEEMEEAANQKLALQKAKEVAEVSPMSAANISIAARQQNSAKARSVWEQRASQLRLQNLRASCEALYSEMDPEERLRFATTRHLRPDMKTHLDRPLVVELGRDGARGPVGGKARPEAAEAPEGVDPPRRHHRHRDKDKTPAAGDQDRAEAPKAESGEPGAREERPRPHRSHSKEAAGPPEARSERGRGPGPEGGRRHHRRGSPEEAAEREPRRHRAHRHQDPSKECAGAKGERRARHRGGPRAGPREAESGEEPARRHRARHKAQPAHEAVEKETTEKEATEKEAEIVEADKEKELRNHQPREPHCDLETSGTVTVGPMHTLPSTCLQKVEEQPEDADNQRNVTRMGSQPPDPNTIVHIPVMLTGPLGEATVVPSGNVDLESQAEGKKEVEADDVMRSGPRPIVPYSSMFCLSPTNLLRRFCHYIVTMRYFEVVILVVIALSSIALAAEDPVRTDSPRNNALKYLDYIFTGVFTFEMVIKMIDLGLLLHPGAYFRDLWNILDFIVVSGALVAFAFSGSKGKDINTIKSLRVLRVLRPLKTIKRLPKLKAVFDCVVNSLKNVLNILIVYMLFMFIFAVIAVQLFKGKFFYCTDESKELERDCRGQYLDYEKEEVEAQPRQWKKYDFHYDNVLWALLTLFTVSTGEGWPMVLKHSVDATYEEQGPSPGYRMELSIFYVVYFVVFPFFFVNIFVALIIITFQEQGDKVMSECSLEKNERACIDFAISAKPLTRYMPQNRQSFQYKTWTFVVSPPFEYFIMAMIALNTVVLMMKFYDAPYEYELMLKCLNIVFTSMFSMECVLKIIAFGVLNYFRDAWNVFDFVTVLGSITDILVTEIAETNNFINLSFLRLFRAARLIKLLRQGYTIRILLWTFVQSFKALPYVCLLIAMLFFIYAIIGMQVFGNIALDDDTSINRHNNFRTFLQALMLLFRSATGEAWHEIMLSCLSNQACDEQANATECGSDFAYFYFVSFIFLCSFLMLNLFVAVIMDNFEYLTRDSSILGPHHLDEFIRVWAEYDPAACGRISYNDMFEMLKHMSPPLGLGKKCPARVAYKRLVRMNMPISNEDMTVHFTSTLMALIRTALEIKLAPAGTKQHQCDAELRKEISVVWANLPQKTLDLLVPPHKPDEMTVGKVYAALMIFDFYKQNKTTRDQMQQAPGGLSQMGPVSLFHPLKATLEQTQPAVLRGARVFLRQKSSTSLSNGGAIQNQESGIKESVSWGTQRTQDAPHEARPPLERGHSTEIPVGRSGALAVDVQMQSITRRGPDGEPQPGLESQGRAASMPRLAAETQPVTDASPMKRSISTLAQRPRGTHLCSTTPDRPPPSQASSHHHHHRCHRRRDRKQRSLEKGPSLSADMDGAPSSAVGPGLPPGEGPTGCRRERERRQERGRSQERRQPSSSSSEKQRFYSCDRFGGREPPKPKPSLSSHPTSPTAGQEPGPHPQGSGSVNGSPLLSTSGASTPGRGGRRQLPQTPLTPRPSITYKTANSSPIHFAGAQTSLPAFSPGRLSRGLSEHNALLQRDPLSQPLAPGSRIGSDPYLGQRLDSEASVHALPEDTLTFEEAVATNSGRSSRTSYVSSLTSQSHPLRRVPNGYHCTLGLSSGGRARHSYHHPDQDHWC
- assayOverview: Inhibitory activity against N-type calcium channel by calcium influx into IMR32 cells
# output: bare number, implied unit nM

Supply reported IC50 belonging to this molecule: CC1=NC(C)=C(C(=O)O)C(c2cccc(Cl)c2)/C1=C(\O)OC/C=C/c1ccccc1 (stereo not given)
1000

Supply reported IC50 belonging to this molecule: CC1=NC(C)=C(C(=O)O)C(c2cccc(Cl)c2)/C1=C(\O)OCC(=O)Nc1ccccc1 (stereo not given)
28000

Supply reported IC50 belonging to this molecule: CC1=NC(C)=C(C(=O)O)C(c2cccc(Cl)c2)/C1=C(\O)OC/C(C)=C/c1ccccc1 (stereo not given)
680

Supply reported IC50 belonging to this molecule: CC1=NC(C)=C(C(=O)O)C(c2cccc(Br)c2)/C1=C(\O)OC/C=C/c1ccccc1 (stereo not given)
790

Supply reported IC50 belonging to this molecule: CC1=NC(C)=C(C(=O)O)C(c2ccsc2)/C1=C(\O)OC/C=C/c1ccccc1 (stereo not given)
2900
